target: EGLN3; assay: cell-based or functional assay
Where no end group is shown, it is not given here.
test.readout: Activity (%)*
# value in %; strip the unit string

[ask] Fill in the blank: the reported Activity (%)* of DTDLDLEAAAPYIPADDDFQ [DTDLDLEAAApYIPADDDFQ] is ____.
[reply] 30.2

[ask] Quick one: DTDLDPEALAPYIPADDDFQ (not fully specified; printed as DTDLDPEALApYIPADDDFQ) [DTDLDPEALApYIPADDDFQ]
[reply] 76.6

[ask] Note, next up: DTDLDAEAIAPYIPADDDFQ [DTDLDAEAIApYIPADDDFQ]
[reply] 25.7
